# Target Desc: T1, mouse MUC18 (melanoma cell adhesion molecule) (mouse, UniProt Q8R2Y2 24-648)
# T1 construct: whole, on cells; Present on B16 melanoma cells before and after co-culture with B-1 lymphocytes; In the immunocapture assay it was captured from cell membrane extracts by anti-MUC18 antibody; In Western blot and co-IP it came from cell membrane extracts; also called MCAM; native mouse MUC18
# T1 sequence (looked up): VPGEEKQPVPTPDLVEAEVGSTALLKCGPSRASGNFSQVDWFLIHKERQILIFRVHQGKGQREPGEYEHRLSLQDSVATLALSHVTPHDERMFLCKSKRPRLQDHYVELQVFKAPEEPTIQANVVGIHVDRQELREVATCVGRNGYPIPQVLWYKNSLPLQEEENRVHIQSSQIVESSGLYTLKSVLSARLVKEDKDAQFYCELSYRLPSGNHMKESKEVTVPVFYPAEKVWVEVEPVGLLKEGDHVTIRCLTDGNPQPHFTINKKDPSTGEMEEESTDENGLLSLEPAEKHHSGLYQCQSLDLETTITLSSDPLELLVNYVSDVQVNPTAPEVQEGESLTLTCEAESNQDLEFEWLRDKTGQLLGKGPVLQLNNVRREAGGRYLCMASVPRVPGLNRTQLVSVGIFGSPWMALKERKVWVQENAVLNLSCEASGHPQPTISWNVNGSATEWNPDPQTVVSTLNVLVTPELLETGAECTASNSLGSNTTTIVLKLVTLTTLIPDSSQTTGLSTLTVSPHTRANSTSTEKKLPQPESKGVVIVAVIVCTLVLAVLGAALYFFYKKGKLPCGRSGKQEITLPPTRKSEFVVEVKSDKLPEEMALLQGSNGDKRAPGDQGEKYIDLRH
# Assay Text: alanine-scanning phage binding to melanoma cells

>  <Binder>
HDERMFLCKA (Numbering counts on mouse MUC18) [H111-S120 phage with Ser120 mutated (alanine scanning)]

>  <binding result>
no binding

$$$$
>  <Binder>
HDERMFLAKS (Numbering counts on mouse MUC18) [H111-S120 phage with Cys118 mutated (alanine scanning)]

>  <binding result>
no binding

$$$$
>  <Binder>
HDERMFLCAS (Numbering counts on mouse MUC18) [H111-S120 phage with Lys119 mutated (alanine scanning)]

>  <binding result>
no binding

$$$$
>  <Binder>
HDEAMFLCKS (Numbering counts on mouse MUC18) [H111-S120 phage with Arg114 mutated (alanine scanning)]

>  <binding result>
no binding

$$$$
